- experiment: S16 Schwann cell PMP22 intronic element firefly luciferase assay (AID 624032);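 further: plate controls were DMSO for no effect and PTC124 positive control mean for full effect; nearly all actives have a fitted effect of over 30% in size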
- cond: S16 rat Schwann cells, PMP22 element FLuc, 24 h; series mostly up to 57.5 µM
Records with an inconclusive call do not appear. Active and inactive are the calls of the source. The call rests on the fitted dose curve; in most records, active means well fitted inhibition curve with a large enough effect; inconclusive means small, poorly fitted or top-dose-only effect; inactive means no such curve, though single readings can be large or run the other way.
readout_name: outcome

[[record]]
molecule = "C[C@@H]1CCN(C(=O)[C@H](CCCNC(=N)N)NS(=O)(=O)c2cccc3c2NC[C@H](C)C3)[C@@H](C(=O)O)C1"
result_value = "inactive"

[[record]]
molecule = "CCN(CC)C(=O)[C@@]1(c2ccccc2)C[C@@H]1CN"
result_value = "inactive"

[[record]]
molecule = "CCCCCCCCCCCC(=O)OCC(O)C1OCC(O)C1O (centres undefined)"
result_value = "inactive"

[[record]]
molecule = "C[C@@H]1C(SC2Cn3cnc[n+]3C2)=C(C(=O)[O-])N2C(=O)[C@H]([C@@H](C)O)[C@@H]12 (some centres undefined)"
result_value = "inactive"

[[record]]
molecule = "Cc1ccc(S(=O)(=O)NC(=O)NC(C)Cc2ccccc2)cc1 (centres undefined)"
result_value = "inactive"

[[record]]
molecule = "CC1(C)SC2[C@@H](N=CN3CCCCCC3)C(=O)N2[C@H]1C(=O)O (some centres undefined)"
result_value = "inactive"

[[record]]
molecule = "COc1cc([C@H]2c3cc4c(cc3[C@@H](O[C@H]3O[C@H]5CO[C@@H](C)O[C@H]5[C@@H](O)[C@@H]3O)[C@@H]3COC(=O)[C@H]23)OCO4)cc(OC)c1O"
result_value = "inactive"

[[record]]
molecule = "CC(=O)NC1[C@H](O)C[C@@](O)(C(=O)O)O[C@H]1[C@H](O)[C@H](O)CO (some centres undefined)"
result_value = "inactive"

[[record]]
molecule = "C=C(CC[C@@H](C)[C@H]1CCC2[C@]1(C)CC[C@]13C[C@@]14CCC(OC(=O)/C=C/c1ccc(O)c(OC)c1)C(C)(C)[C@@H]4CC[C@@]23C)C(C)C (some centres undefined)"
result_value = "inactive"


====

- experiment: NFAT Signaling Pathway (AID 444);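 further: carbachol stimulus at about its EC50 of 1 µM final; on the % scale 0 is the no-effect control and ±100 the full control effect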
- cond: Jurkat NFAT-bla M1, carbachol, beta-lactamase ratio, 5 h; at 17.2 µM (top of the series) unless noted
- Experimental: NCGC Assay Overview: The nuclear factor of activated T cells (NFAT) family of transcription factors has been found primarily in most immune system cells and some other non-immune cells. NFAT plays the immunomodulatory role, primarily in T-cell activation and differentiation. […] NCGC Assay Protocol Summary: The cells were prepared in RPMI 1640 medium containing 0.1% dialyzed FBS and 25 mM HEPES at 1.6 x 10^6cell/ml. […] The %Activity was determined from the ratio of 460nm/530nm. […]
Results filed as inconclusive are left out.
The following molecules are shown together with reported activity change, negative = inhibition values.
readout_name: activity change, negative = inhibition (%)

[[record]]
molecule = "Cn1c(=O)c2c(nc(NCCCO)n2Cc2cccc(C(F)(F)F)c2)n(C)c1=O"
result_value = 7.97

[[record]]
molecule = "Cn1c(SCC(=O)N2CCOCC2)nnc1-c1ccc(Cl)cc1Cl"
result_value = -5.6

[[record]]
molecule = "COc1ccc(C(O)C(CN2CCOCC2)c2ccccc2)cc1 (configuration not stated)"
result_value = 7.08

[[record]]
molecule = "Cc1cc(C)nc(N(C#N)CC(=O)N(c2ccccc2)C(C)C)n1"
result_value = 4.64

[[record]]
molecule = "O=c1[nH]c(CN(CCO)CCO)nc2c1C1(CCCCC1)Cc1ccccc1-2"
result_value = 6.88

[[record]]
molecule = "CCN(CC)C(=O)CSC1=C(C#N)C(c2ccco2)C(C(=O)OCCOC)=C(C)N1 (configuration not stated)"
result_value = -0.498

[[record]]
molecule = "Cc1c(C=NCCOCc2ccccc2)cnn1C"
result_value = -4.41

[[record]]
molecule = "Cc1occc(=O)c1OC(=O)Nc1ccccc1"
result_value = 1.25

[[record]]
molecule = "Cn1c(N)c(C#N)c2c(c1=S)CSC(C)(C)C2"
result_value = -25.2

[[record]]
molecule = "ONC(=Nc1ccccc1)C(=Nc1ccccc1)NO"
result_value = 9.94

[[record]]
molecule = "COc1ccccc1C1/C(=C(/O)c2ccc(OC(C)C)cc2)C(=O)C(=O)N1c1cc(C)on1 (configuration not stated)"
result_value = 27.8

[[record]]
molecule = "CCOC(=O)c1[nH]c2ccc(C)cc2c1N"
result_value = -1.75

